Collected growth values appear next to each entry.
System: SNB-19 CNS
Experiment: NCI-60 one-dose screen, 48 h (100 = growth as untreated, 0 = no growth, -100 = all killed)
Details: 10 µM unless noted
The panel holds about 83,000 compounds, 20% with a hit somewhere; the sample as a whole holds those more often.
Numeric only. Scale: %

Give the measured growth for COc1ccc2c(c1)Oc1nc(N)c(C#N)c(N)c1C2Sc1ccc(SC)cc1 (configuration not stated)
58.2

Give the measured growth for COc1cc(/C=C/C(=O)/C=C/c2cc3ccc(Cl)cc3n(Cc3ccccc3)c2=O)ccc1O
13.3

Give the measured growth for C=C1C(=O)O[C@H]2[C@H]1CC/C(COC(=O)NCc1nc3ccccc3[nH]1)=C\CC[C@@]1(C)O[C@@H]21
98.6

Give the measured growth for CCCCOc1nc2ccc(C)cc2cc1/C=C/C(=O)/C=C/c1ccc2c(c1)OCO2
92.9

Give the measured growth for COc1ccc2nc(-c3ccc(Cl)cc3)cc(-c3nnc(SCC(=O)Nc4ccc(/C(C)=N\O)cc4)o3)c2c1
-18.2

Give the measured growth for C=C(C)[C@@H]1CC[C@]2(C(=O)OCCCC[P+](c3ccccc3)(c3ccccc3)c3ccccc3)CC[C@]3(C)[C@H](CC[C@@H]4[C@@]5(C)CC[C@H](OC(=O)C(Cl)Cl)C(C)(C)[C@@H]5CC[C@]43C)[C@@H]12
11

Give the measured growth for COc1ccc(-c2cn(-c3ccc(Cl)cc3)c(=S)[nH]2)cc1OC
90.6
